Each entry below carries its reported melting point.

molecule	melting point
NC(=O)CNC(=S)Nc1c(Cl)cccc1Cl	189 to 191 °C
COc1ccc(Cl)nc1C(N)=O	223 to 224 °C
CC(C)Nc1nc2c(Cl)c(Cl)c(Cl)cc2n1[C@H]1O[C@@H](CO)[C@H](O)[C@@H]1O	223 to 224 °C
CCN1CCC2(c3cccc(OC)c3)Cc3[nH]c(C(N)=O)c(C)c3CC2C1 (stereo not given)	176 to 178 °C
CCN1CCCC1CNC(=O)c1c(O)ccc(Br)c1OC (stereo not given)	62 to 63 °C
CN(C1CCN(C(=O)OC(C)(C)C)CC1)S(=O)(=O)c1ccc(Nc2nccc(Nc3ccc(F)cc3)n2)cc1	174 to 176 °C
COC(=O)CC(NCc1ccccc1)=C(C(=O)OC)C(=O)C(F)(F)F	89.5 to 90.5 °C
O=C(c1c(F)cccc1F)N1COCN(c2ccc(SC(F)(F)C(F)(F)C(F)(F)F)cc2F)C1=O	44 to 46 °C
COC(=O)c1ccc(-n2cc3ccccc3n2)cc1	80 to 81 °C
COCCNc1nc(C)c(C)c(N2CCc3ccccc3C2C)n1 (stereo not given)	64 to 67 °C

----------
The entries below are paired with their reported melting point.

compound	melting point
CCN(CC)c1nc(Cl)nc2c(SC)ncnc12	90 to 91 °C
COC(=O)c1ccc(C(=O)NS(=O)(=O)c2ccc(CCNC(=O)COc3ccccc3)cc2)cn1	201 to 203 °C
COc1cc(OC)c(C(C)=O)c(O)c1OC	114 to 116 °C
CCCCCCC(O)CNCC(O)CO (stereo unspecified)	85 to 90 °C
COc1ccc(C=CCCl)cc1	70 to 72 °C
Cc1c(I)c(=O)n(C2CCCC2)c2nc(Nc3ccc(N4CCNCC4)cn3)ncc12	> 240 °C

----------
compound	melting point
Cc1c(-c2ccccc2)nc(N)nc1C1CCN(Cc2cccc(C#N)c2)CC1	176 °C
CC1SC(=O)NN=C1c1ccc2c(c1)C(C)(C)C(=O)N2C (stereo not given)	125 °C
COc1ccc(C(CC(=O)O)N2C(=O)c3cc(Cl)c(Cl)cc3C2=O)cc1 (stereo not given)	182 to 185 °C
Cc1nc(Br)c(C=O)n1Cc1cc2c(cc1Cl)OCO2	141 °C
Cc1cc(N2CCN(c3ccccc3)CC2)c2c(N)c(C(N)=O)sc2n1	247 to 250 °C

----------
# melting point annotations

compound	melting point
CCCc1nc2c(N)nc(C)c(C)c2n1CCCS(=O)(=O)c1ccc(Cl)cc1	186 to 188 °C
O=c1cc(-c2ccc(OCCCCl)cc2)cn[nH]1	197 to 199 °C
C[C@H](CS)C(=O)N1C(C(=O)O)CCC1c1ccccc1 (stereo not given in full)	138 to 142 °C
O=c1cc(-c2ccncn2)nc2n1CCCCC2Br (racemic)	117 to 119 °C
CC(Oc1ccc(Oc2cnc3ccccc3n2)cc1)C(=O)O (stereo not given)	137 to 141 °C
Clc1ccc(Nc2nc3ccccc3o2)c(Cl)c1	98 to 99 °C
Oc1ccc(C(NC(c2ccccc2)c2ccccc2)P(O)O)c(O)c1 (stereo not given)	250 °C
CCN(Cc1ccc2nc(C)[nH]c(=O)c2c1)C(N)=S	186 to 187 °C
O=S(=O)(c1ccccc1)c1ccc(OCc2ccccc2)c(O)c1	144 to 148 °C
CC(C)(Oc1ccc(-c2ccc(CCNC(=O)c3ccccc3)cc2)cc1)C(=O)O	179 °C

----------
compound	melting point
COc1ccc(-c2cc3cc(OC)cc(CC#N)c3o2)cc1	149 to 150 °C
CCCC(C)Oc1ccc(C(=O)O)cc1 (stereo unspecified)	67 to 68.8 °C
COc1c(C)c(C(O)(c2cccnc2)C(C)C)c(OC)c2ccccc12 (stereo unspecified)	130 to 131 °C
C#CC1(O)C=CC2C3CCC4=CC(=O)CCC4C3C(Cl)CC21CC (stereo unspecified)	202 °C
O=C1CCC(O)(c2ccc3c(c2)OCO3)CC1	162 to 164 °C
C#Cc1ccc2c(c1)C(=O)CC(C)(C)S2	63 to 66 °C
COc1cc(C=O)ccc1OCc1csc(N2CCOCC2)n1	122 to 123 °C
CCN1CCN(c2cc3c(cc2F)c(=O)c(C(=O)O)cn3CC)CC1C (stereo unspecified)	203 to 205 °C
CC(=O)N[C@@H](Cc1ccc(-c2c3ccccc3cc3ccccc23)cc1)C(=O)O	76 °C
CCOC(=O)CN1C(=O)CSC1=Nc1cc(-n2c(=O)cc(C(F)(F)F)n(C)c2=O)c(F)cc1Cl	67 to 87 °C
CCOC(=O)C(=CNc1ccc(F)cc1F)C(=O)c1c(F)c(F)c(F)c(F)c1F	97 to 99 °C
CCc1ccc(N)c(CS(=O)c2nc3ccccc3[nH]2)c1 (stereo unspecified)	155 to 156 °C
Cc1cc(-n2ccnc2)c2cccc(OCc3c(Cl)ccc(S(=O)(=O)N4CCCC4C(=O)NCC4CCN(C(=O)CC(=O)OC(C)(C)C)CC4)c3Cl)c2n1 (stereo unspecified)	101 °C
COCCNC(NC(=O)c1cccnc1)C(Cl)(Cl)Cl (stereo unspecified)	75 to 77 °C
Cc1cc(S(=O)(=O)NC2CCCCC2)c2c(C)ccc(C(C)C)cc1-2	108 to 109 °C
O=C(O)c1cc2cc(Cl)ccc2nc1NC1(C(=O)O)CCc2ccccc21 (stereo unspecified)	141 to 144 °C
COC(=O)N=CNNc1cc(SCC(C)C)ccc1NC(C)=O	180 to 184 °C
Nc1nc(Cl)cc(C#Cc2ccc3c(C(=O)Nc4cccc(C(F)(F)F)c4)cccc3c2)n1	171 to 175 °C
CCOCc1c(-c2ccc(OC(F)F)c(OC3CC3)c2)[nH]c2cn[nH]c(=O)c12	141 to 143 °C
COc1nc(OC)c(C(C)C)c(C(=O)c2cc(Cl)cc(Cl)c2)n1	120 to 121 °C
O=C(CS(=O)(=O)c1ccccc1)c1ccc(F)nc1	127 to 128 °C
CN1C(=O)NCc2cccnc21	140 to 143 °C
C#CCOc1cc(C(=O)O)cc(N)c1C(=O)c1ccccc1	192 °C
CSC(=NCc1cccc2ccccc12)NCC1CCN(S(=O)(=O)c2cccc3ccccc23)CC1	111 to 113 °C
COc1ccc2c(c1)C=Cc1cc(C)ccc1C2c1cn(-c2ccnc(N(C)CC(=O)Nc3nc(CC(=O)O)cs3)n2)c(=O)[nH]c1=O (stereo unspecified)	186 °C
COc1ccc2cc(-c3ccc(C#C[Si](C)(C)C)cc3)[nH]c(=O)c2c1	133 to 135 °C
C#CC(C)(C)OC(=O)N1CCNCC1	35 to 38 °C
CC(=O)Nc1cc2c(cc1Br)CCC2	138 °C
Cc1c(NC(=O)CC(C)(C)C)c(C)c2c(c1C(=O)O)OCC2c1ccc(C(C)C)cc1 (stereo unspecified)	194 to 195 °C
COc1ccc(N2CCN(Cc3ccc(NC(=O)/C=C/c4cccc(-c5ccc(C)cc5)c4)cc3)CC2)cc1	207 to 208 °C
Cc1c2c(c(C)c3c1NCC3)OC(C)(C)C2	105 to 107 °C
Cc1cc2nc(C(C)(C)C(=O)O)cn2nc1OCCCN1CCC(OC(c2ccccc2)c2ccccc2)CC1	122 °C
Nc1nccc2ccc(OS(=O)(=O)C(F)(F)F)cc12	115 to 118 °C
COc1cc(/C=C/C(=O)c2ccc(C(=O)O)cc2)cc(-c2cccs2)c1OC	231 °C
O=Cc1cc2cc(OCc3ccccc3)c(F)cc2nc1Cl	228 °C
c1ccc(CCN2CCC(Nc3nc4ccccc4n3CCc3cccs3)CC2)cc1	118 °C
CCc1[nH]c(=O)[nH]c1-c1cc(C(C)(C)C)c(O)c(C(C)(C)C)c1	267 to 270 °C
CC(C)(C)OC(=O)n1cc(I)c2ccncc21	68 to 72 °C
CCC(=O)N(C)Cc1cccc2c1C(=O)N(C1CCC(=O)NC1=O)C2=O (stereo unspecified)	206 to 208 °C
CC(C(N)=O)c1ccc2c(c1Cl)C(=O)Cc1ccccc1S2 (stereo unspecified)	180 to 181 °C
O=C1OC(=O)c2c1ccc1ccc3ccccc3c21	245 °C

----------
# melting point per record follows
measure_name: melting point

compound	test_value
CCOC(=O)NC(=O)C(c1ccccc1)c1ccccc1	133 °C
COc1cc(Cc2cnc(NCCSCc3ncccc3Br)[nH]c2=O)ccn1	70 to 72 °C
Nn1c(C(F)(F)F)cc(-c2ccc(C(F)(F)F)cc2)cc1=S	156 °C
Cc1coc2c(c1=O)N(C)S(=O)(=O)c1ccccc1-2	214 to 216 °C
O=c1cc(N2CCOCC2)oc2ccc(-c3ccccc3)cc12	218 to 220 °C
COCc1ncnc(O)c1C	139 to 140 °C
CCCc1cc(Cl)c2oc(C(=O)c3ccccc3)c(C)c2c1OC(=O)c1ccccc1	141 to 142 °C
O=c1c(-c2ccccc2)c[nH]nc1-c1ccccc1	328 to 332 °C
O=C1N[C@H](Cc2ccc(C(F)(F)F)cc2)[C@H](c2cccc3ccccc23)O1 (racemic)	202 to 203 °C
CCCC(=O)OC1(C(=O)COC(=O)CC)CCC2C3CC(C)C4=CC(=O)C=CC4(C)C3C(O)CC21C (stereo unspecified)	126 °C
COc1ccc(OCc2ccccc2)c2c1OCCO2	70 °C
CNC(=O)N1CCC(c2nn(-c3ccc(C(F)(F)F)cc3)c3ccccc23)CC1	150 to 152 °C
c1ccc(C2=NN=C(N3CCOCC3)SC2)cc1	173 to 174 °C
COc1ccc(C)c(NC(=O)CC23CC4CC(CC(C4)C2)C3)c1	147 °C
COC(=O)CCN(C)CCNC(=O)c1nc(Cl)c(N)nc1N	136 to 137 °C
CC(=O)Nc1nc2c(s1)-c1c(c(-c3c[nH]cn3)nn1-c1ccccc1C(F)(F)F)CC2	> 300 °C
O=C(NCC12CC3CC(CC(C3)C1)C2)c1c(Cl)ccc2nc(N3CCC(O)(C(=O)O)CC3)ccc12	200 to 204 °C
COc1ccc2nc(Cl)c(C#N)cc2c1	201 to 202 °C
Clc1ccc2nc(-c3ccsc3)cn2n1	203 to 205 °C
CC(C)(O)CCCCCc1cccc(C=Cc2ccc(CO)c(CO)c2)c1	93 to 95 °C
CC(=O)NCC(=O)NCC1(SCc2ccccc2)C2CC3CC(C2)CC1C3 (stereo unspecified)	132 to 134 °C
